Type: biochemical
Conditions: Table 6

| MOLECULE | Azo-Reductase |
| --- | --- |
| P. gingivalis YwrO: nitroreductase from Porphyromonas gingivalis, SEQ ID NO: 25 (protein, listed as Porphyromonas gingivalis) MKKTLVIVVHPDLTKSVINKAWAKAIEGAATIHHLYEQYPNGQIDLAHEQALLEAHDRIVFQFPLYWYAAPYLLKKWMDEVFTEGWAYGAGGDKMEGKEICAAVSCGSPKSAFAEGAQQCHTLRSYLNVFDGIAAFLRARFTGYHACYDSYNPRLPEMLPANCEAYLRFIKGE | Yes |
| C. jejuni NfnB: nitroreductase from Campylobacter jejuni, SEQ ID NO: 23 (protein, listed as Campylobacter jejuni) MKKELEIFSTRYSCRNFKNEKLKKEDLNSILEIARLSPSSLGLEPWKFIVVQDEKRKEELSKICNQQKHVKDCAALIIIISRLDFLDYFEEKLRKRDMSETEMQKRLDTYMPFLKSLNQEQKISYAREQAHIALASILYSANALNIASCTIGGFDKEKLDSYLSLDIQKERSSLVVALGYCNDKKNPQKNRFSFDEVVKFI | Yes |
| H. influenzae NfnB: nitroreductase from H. influenzae, SEQ ID NO: 17 (protein, listed as Haemophilus influenzae) MTQLTREQVLELFHQRSSTRYYDPTKKISDEDFECILECGRLSPSSVGSEPWKFLVIQNKTLREKMKPFSWGMINQLDNCSHLVVILAKKNARYDSPFFVDVMARKGLNAEQQQAALTKYKALQEEDMKLLENDRTLFDWCSKQTYIALANMLTGASALGIDSCPIEGFHYDKMNECLAEEGLFDPQEYAVSVAATFGYRSRDIAKKSRKGLDEVVKWVG | No |
| YodC: nitroreductase from B. subtilis, SEQ ID NO: 12 (coded for by SEQ ID NO: 11) (protein, listed as Bacillus subtilis) MTNTLDVLKARASVKEYDTNAPISKEELTELLDLATKAPSAWNLQHWHFTVFHSDESKAELLPVAYNQKQIVESSAVVAILGDLKANENGEEVYAELASQGYITDEIKQTLLGQINGAYQSEQFARDSAFLNASLAAMQLMIAAKAKGYDTCAIGGFNKEQFQKQFDISERYVPVMLISIGKAVKPAHQSNRLPLSKVSTWL | Yes |
| YdgI (Bacillus subtilis subsp. subtilis str. 168) (protein, made in house; host or cells: E. coli (pMTL1015; HMS174)) MIKTNDFMEIMKGRRSIRNYDPAVKISKEEMTEILEEATTAPSSVNAQPWRFLVIDSPEGKEKLAPLASFNQTQVTTSSAVIAVFADMNNADYLEEIYSKAVELGYMPQEVKDRQIAALTAHFEKLPAQVNRETILIDGGLVSMQLMLTARAHGYDTNPIGGYDKENIAETFGLDKERYVPVMLLSIGKAADEGYASYRLPIDTIAEWK | Yes |
| Synechocystis: nitroreductase from Synechocystis sp PCC 6803, SEQ ID NO: 19 (protein, Synechocystis PCC6803) MDTFDAIYQRRSVKHFDPDHRLTAEEERKLHEAAIQAPTSFNIQLWRFLIIRDPQLRQTIREKYGNQAQMTDASLLILVAADVNAWDKDPARYWRNAPREVANYLVGAIAFYGGKPQLQRDEAQRSIGMAMQNLMLAAKAMGYDSCPMIGFDLQKVAELVKLPADYAIGPMVAIGKRTEDARAKGGQTPLEELVWENSFA | No |
